src = patent US20260146094A1

Target: T1, macaque c-Met on macaque epithelial cell 4MBr-5 (macaque)
T1 construct: whole, on cells; also called 4MBr-5 cell
Assay: flow cytometry on 4MBr-5 macaque epithelial cells
QUANTITY_KIND: pEC50
Quick note: pEC50 values are minus log10 of concentrations in mol/L.

For orientation, consider the following solved cases.
1B-1B2-Fc (antibody, human IgG1, V domains shown, also called anti-human c-Met VHH-Fc chimeric antibody 1B-1B2-Fc) VH: EVQLVESGGGSVQAGGSLRLSCTASGFTFDMGWYRQAPGDECELVSSISSDGNSDYLDSVKGRFTISQDNAKNTVYLQMNSLKPEDTAVYYCAANGAGHLVLRPLCGSNAVDAWGQGTLVTVSS; 9.38
3B-1C7-Fc (antibody, human IgG1, V domains shown, also called anti-human c-Met VHH-Fc chimeric antibody 3B-1C7-Fc) VH: QVQLVESGGDSVQAGGSLRLSCIASGFTFDGTTMGWYRQAPGDECELVSDISSDGNTYYSDSVKGRFTISQGNAKNTVYLQMNSLTPEDTAVYYCAAAEFRLLLRPLCRQDDYGYWGQGTLVTVSS; 9.55
1B-1C7-Fc (antibody, human IgG1, V domains shown, also called anti-human c-Met VHH-Fc chimeric antibody 1B-1C7-Fc) VH: QVQLVESGGGLVQPGGSLRLSCAASGYSYSANCVGWFYQAPGKEREGVAAINTGGETATYADFVKGRFTISQDYAKNTVYLQMNSLKSEDTGMYYCAAVGTRKYWDECSLSQHAYKNWGQGTLVTVSS; 10.15

Please turn your attention to the following entry.
Query: Reported pEC50 for 1B-1A8-Fc (antibody, human IgG1, V domains shown, also called anti-human c-Met VHH-Fc chimeric antibody 1B-1A8-Fc) VH: EVQLVESGGGLVQPGGSLRLSCVASGFTFKSYAMDWVRQAPGKGLEWIAGINSAGSPSYEASVKGRFTISRDNAENTLYLQLNSLKTEDTAMYYCTKCRDFRSPYCRPGQGTLVTVSS : what is it?
Reply: 9.33
